From: PubChem BioAssay AID624002

molecular target: Isocitrate dehydrogenase [NADP] cytoplasmic (Homo sapiens) (UniProt O75874); experiment: qHTS for Inhibitors of mutant isocitrate dehydrogenase 1 (IDH1): Confirmation of Cherrypicks; conditions: IDH1 R132H enzyme, NADPH diaphorase/resazurin fluorescence; series mostly up to 76.6 µM; note: nearly all actives have a fitted effect of over 50% in size; note: potency is the fitted concentration of half-maximal effect
Sequence (O75874 whole entry R132H, stated change not applied): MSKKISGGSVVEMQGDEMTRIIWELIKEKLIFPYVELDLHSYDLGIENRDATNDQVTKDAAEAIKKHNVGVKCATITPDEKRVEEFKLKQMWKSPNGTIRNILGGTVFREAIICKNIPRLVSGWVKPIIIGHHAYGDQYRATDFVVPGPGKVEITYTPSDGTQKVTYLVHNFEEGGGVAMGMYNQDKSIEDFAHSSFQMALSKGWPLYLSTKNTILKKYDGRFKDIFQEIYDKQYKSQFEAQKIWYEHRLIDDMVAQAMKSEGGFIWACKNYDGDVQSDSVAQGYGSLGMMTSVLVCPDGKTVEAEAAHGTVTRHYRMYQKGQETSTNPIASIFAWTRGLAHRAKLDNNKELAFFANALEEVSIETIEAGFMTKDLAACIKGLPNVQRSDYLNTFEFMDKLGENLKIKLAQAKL
The list shows a part of the results. Inconclusive results are not listed. The source made the active and inactive calls. Calls come from the whole dose curve; as a rule, active = well fitted inhibition curve with a large enough effect; inconclusive = small, poorly fitted or top-dose-only effect; inactive = no such curve, though single readings can be large or run the other way.
MEASURED PARAMETER: Potency

[[record]]
compound = "O=C(NC(Nc1nc2ccc([N+](=O)[O-])cc2s1)(C(F)(F)F)C(F)(F)F)c1ccccc1"
measured_parameter = "Potency"
reported_result = "3.55 µM (active)"

[[record]]
compound = "CCCCC(=O)NC(c1ccc(OC)c(OC)c1)c1ccc2cccnc2c1O (stereo unspecified)"
measured_parameter = "Potency"
reported_result = "inactive"

[[record]]
compound = "N#CC1=C(N)C(C#N)(C#N)[C@H](c2ccsc2)[C@H]2COCC=C12"
measured_parameter = "Potency"
reported_result = "44.7 µM (active)"

[[record]]
compound = "CCOC(=O)c1ccc(N2C(=O)c3n[nH]c(-c4ccco4)c3C2c2ccc(O)cc2)cc1 (stereo unspecified)"
measured_parameter = "Potency"
reported_result = "39.8 µM (active)"

[[record]]
compound = "COc1ccc(/C=C2/SC(=O)N(CCCCCC(=O)Nc3ccccc3C(=O)O)C2=S)cc1"
measured_parameter = "Potency"
reported_result = "39.8 µM (active)"

[[record]]
compound = "Cc1nc(C)c(C(=O)N(c2ccc(C)c(C)c2)C(C(=O)NCc2ccco2)c2ccccc2)s1 (stereo unspecified)"
measured_parameter = "Potency"
reported_result = "17.8 µM (active)"

[[record]]
compound = "CC(C)Nc1nc(N(c2ccccc2)c2ccccc2)nc(-n2ccnc2)n1"
measured_parameter = "Potency"
reported_result = "39.8 µM (active)"

[[record]]
compound = "COC(=O)c1ccc(-c2c(-c3ccccc3)ncc3cc(OC)c(OC)cc23)cc1"
measured_parameter = "Potency"
reported_result = "12.6 µM (active)"

[[record]]
compound = "COc1ccc(Cl)cc1-n1c(=S)sc2c(=O)n(-c3ccc(F)cc3)c(SCC(=O)O)nc21"
measured_parameter = "Potency"
reported_result = "7.94 µM (active)"

[[record]]
compound = "O=C1c2cccc3cccc(c23)C(=O)N1CCCCCc1n[nH]c(=S)o1"
measured_parameter = "Potency"
reported_result = "39.8 µM (active)"

[[record]]
compound = "Cn1c(COc2ccc(Cl)cc2)nc2ccccc2c1=O"
measured_parameter = "Potency"
reported_result = "inactive"

